Measured values drawn from paper PMC10786919 for this set.

Experiment: Lactate dehydrogenase (LDH) release assay
Assay type: cell-based
Conditions: 10% FBS 16Hr; read-out: LDH: Cytotoxicity assay EC50
Positions of bridges follow the written chain, without caps; N, C: chain ends. Non-standard residues stand in square brackets, D forms with d. Residues, ends and D or L forms follow the SMILES beside them. dPhe(4-CF3) = N[C@H](Cc1ccc(C(F)(F)F)cc1)C(=O)O; dTrp(6-F) = N[C@H](Cc1c[nH]c2cc(F)ccc12)C(=O)O; R8 = C=CCCCCCC[C@@](C)(N)C(=O)O; R5 = C=CCCC[C@@](C)(N)C(=O)O; S5 = C=CCCC[C@](C)(N)C(=O)O
# EC50 per record follows

Solved entries (count: 2):
# MOLECULE, RESULT
data = [
    ("CC(=O)N[C@@H](C(=O)N[C@H](C)C(=O)N[C@H](Cc1c[nH]c2cc(F)ccc12)C(=O)N[C@H](Cc1ccc(O)cc1)C(=O)N[C@H](C)C(=O)N[C@]1(C)CCCC=CCCC[C@](C)(C(=O)N[C@H](CC(C)C)C(=O)N[C@H](CO)C(N)=O)NC(=O)[C@@H](CCC(N)=O)NC(=O)[C@@H](CCC(=O)O)NC(=O)[C@@H](Cc2ccc(C(F)(F)F)cc2)NC1=O)[C@H](C)O [MP-797] (Ac-[dT][dA][dTrp(6-F)][dY][dA][R5][dPhe(4-CF3)][dE][dQ][R5][dL][dS]-NH2; staple 6-10)", "> 50.7 µM"),
    ("CC(=O)N[C@@H](CC(C)C)C(=O)N[C@H](C(=O)N[C@@H](Cc1ccccc1)C(=O)N[C@]1(C)CCCCCCC=CCCC[C@@](C)(C(=O)N[C@@H](C)C(=O)N[C@@H](C)C(=O)N[C@@H](C)C(=O)N[C@@H](C)C(=O)N[C@@H](C)C(=O)N[C@@H](C)C(N)=O)NC(=O)[C@H](CC(C)C)NC(=O)[C@H](CCC(N)=O)NC(=O)[C@H](C)NC(=O)[C@H](Cc2c[nH]c3ccccc23)NC(=O)[C@H](Cc2ccc(O)cc2)NC(=O)[C@H](CCC(=O)O)NC1=O)[C@@H](C)O [MP-688] (Ac-LTF[R8]EYWAQL[S5]AAAAAA-NH2; staple 4-11)", "> 50.7 µM"),
]

Name the recorded EC50 of the item CC(C)C[C@@H](NC(=O)[C@@]1(C)CCCC=CCCC[C@@](C)(NC(=O)[C@@H](C)NC(=O)[C@@H](Cc2ccc(O)cc2)NC(=O)[C@@H](Cc2c[nH]c3cc(F)ccc23)NC(=O)[C@@H](C)NC(=O)[C@H](N)[C@H](C)O)C(=O)N[C@H](Cc2ccc(C(F)(F)F)cc2)C(=O)N[C@H](CCC(=O)O)C(=O)N[C@H](CCC(N)=O)C(=O)N1)C(=O)N[C@H](CO)C(N)=O [MP-795] (H-[dT][dA][dTrp(6-F)][dY][dA][R5][dPhe(4-CF3)][dE][dQ][R5][dL][dS]-NH2; staple 6-10) in your answer.
> 50.7 µM

----------
Experiment: Lactate dehydrogenase (LDH) release assay
Type: cell-based
Details: LDH: Cytotoxicity assay: EC50
Positions of bridges follow the written chain, without caps; N, C: chain ends. Non-standard residues stand in square brackets, D forms with d. Residues, ends and D or L forms follow the SMILES beside them. Lys(N3) = [N-]=[N+]=NCCCC[C@H](N)C(=O)O; R8 = C=CCCCCCC[C@@](C)(N)C(=O)O; Cba = N[C@@H](CC1CCC1)C(=O)O; S5 = C=CCCC[C@](C)(N)C(=O)O; βAla = NCCC(=O)O
RECORDED ENDPOINT: EC50

Name the recorded EC50 of the item CC(=O)N[C@@H](CCCNC(=N)N)C(=O)NCCC(=O)N[C@@H](CC(C)C)C(=O)N[C@H](C(=O)N[C@@H](Cc1ccccc1)C(=O)N[C@]1(C)CCCCCCC=CCCC[C@@](C)(C(=O)N[C@@H](CO)C(=O)N[C@@H](C)C(=O)N[C@@H](C)C(N)=O)NC(=O)[C@H](CC2CCC2)NC(=O)[C@H](CCC(N)=O)NC(=O)[C@H](C)NC(=O)[C@H](Cc2c[nH]c3ccccc23)NC(=O)[C@H](Cc2ccc(O)cc2)NC(=O)[C@H](CCC(=O)O)NC1=O)[C@@H](C)O [MP-000] in your answer.
> 50 µM

Name the recorded EC50 of the item CC(=O)N[C@@H](CCCCN=[N+]=[N-])C(=O)NCC(=O)N[C@@H](CO)C(=O)NCC(=O)N[C@H](C(=O)N[C@@H](CO)C(=O)N[C@@H](Cc1ccccc1)C(=O)N[C@]1(C)CCCCCCC=CCCC[C@@](C)(C(=O)N[C@@H](CCC(=O)O)C(N)=O)NC(=O)[C@H](CC(C)C)NC(=O)[C@H](CC(C)C)NC(=O)[C@H](C)NC(=O)[C@H](Cc2c[nH]c3ccccc23)NC(=O)[C@H](Cc2ccc(O)cc2)NC(=O)[C@H](CCC(=O)O)NC1=O)[C@@H](C)O [MP-010] in your answer.
> 50 µM

Name the recorded EC50 of the item CC(=O)N[C@@H](CCCNC(=N)N)C(=O)NCCCCCC(=O)N[C@@H](CC(C)C)C(=O)N[C@H](C(=O)N[C@@H](Cc1ccccc1)C(=O)N[C@]1(C)CCCCCCC=CCCC[C@@](C)(C(=O)N[C@@H](CO)C(=O)N[C@@H](C)C(=O)N[C@@H](C)C(N)=O)NC(=O)[C@H](CC2CCC2)NC(=O)[C@H](CCC(N)=O)NC(=O)[C@H](C)NC(=O)[C@H](Cc2c[nH]c3ccccc23)NC(=O)[C@H](Cc2ccc(O)cc2)NC(=O)[C@H](CCC(=O)O)NC1=O)[C@@H](C)O [MP-4001] in your answer.
> 50 µM

Name the recorded EC50 of the item CC(=O)N[C@@H](CCCCN=[N+]=[N-])C(=O)NCCC(=O)N[C@@H](CC(C)C)C(=O)N[C@H](C(=O)N[C@@H](Cc1ccccc1)C(=O)N[C@]1(C)CCCCCCC=CCCC[C@@](C)(C(=O)N[C@@H](CO)C(=O)N[C@@H](C)C(=O)N[C@@H](C)C(N)=O)NC(=O)[C@H](CC2CCC2)NC(=O)[C@H](CCC(N)=O)NC(=O)[C@H](C)NC(=O)[C@H](Cc2c[nH]c3ccccc23)NC(=O)[C@H](Cc2ccc(O)cc2)NC(=O)[C@@H](C)NC1=O)[C@@H](C)O [MP-473] (Ac-[Lys(N3)][βAla]LTF[R8][dA]YWAQ[Cba][S5]SAA-NH2; staple 6-13) in your answer.
> 50 µM

Name the recorded EC50 of the item CC(=O)N[C@@H](CC(C)C)C(=O)N[C@H](C(=O)N[C@@H](Cc1ccccc1)C(=O)N[C@]1(C)CCCCCCC=CCCC[C@@](C)(C(=O)N[C@@H](CO)C(=O)N[C@@H](C)C(=O)N[C@@H](C)C(N)=O)NC(=O)[C@H](CC(C)C)NC(=O)[C@H](CCC(N)=O)NC(=O)[C@H](C)NC(=O)[C@H](Cc2c[nH]c3ccccc23)NC(=O)[C@H](Cc2ccc(O)cc2)NC(=O)[C@H](CCC(=O)O)NC1=O)[C@@H](C)O [MP-154] in your answer.
> 50.7 µM

Name the recorded EC50 of the item CC(C)C[C@@H]1NC(=O)[C@H](C)NC(=O)[C@H](Cc2c[nH]c3ccccc23)NC(=O)[C@H](Cc2ccc(O)cc2)NC(=O)[C@H](CCC(=O)O)NC(=O)[C@](C)(NC(=O)[C@H](Cc2ccccc2)NC(=O)[C@H](CO)NC(=O)[C@@H](NC(=O)[C@H](CO)NC(=O)CNC(=O)[C@H](CO)NC(=O)[C@H](CCCCN=[N+]=[N-])NC(=O)[C@@H](N)CCC(=O)O)[C@@H](C)O)CCCCCCC=CCCC[C@@](C)(C(N)=O)NC(=O)[C@H](CC(C)C)NC1=O [MP-0180] in your answer.
> 50.6 µM

Name the recorded EC50 of the item CC(C)C[C@@H]1NC(=O)[C@H](C)NC(=O)[C@H](Cc2c[nH]c3ccccc23)NC(=O)[C@H](Cc2ccc(O)cc2)NC(=O)[C@H](CCC(=O)O)NC(=O)[C@](C)(NC(=O)[C@H](Cc2ccccc2)NC(=O)[C@H](CO)NC(=O)[C@@H](NC(=O)[C@H](CO)NC(=O)[C@@H](N)CCCCN=[N+]=[N-])[C@@H](C)O)CCCCCCC=CCCC[C@@](C)(C(N)=O)NC(=O)[C@H](CC(C)C)NC1=O [MP-0178] in your answer.
> 50.6 µM

Name the recorded EC50 of the item CC(=O)N[C@@H](CS)C(=O)N[C@@H](CCCCN=[N+]=[N-])C(=O)NCCC(=O)N[C@@H](C)C(=O)N[C@H](C(=O)N[C@@H](Cc1ccccc1)C(=O)N[C@]1(C)CCCCCCC=CCCC[C@@](C)(C(=O)N[C@@H](C)C(=O)N[C@@H](C)C(=O)N[C@@H](C)C(N)=O)NC(=O)[C@H](CC2CCC2)NC(=O)[C@H](C)NC(=O)[C@H](C)NC(=O)[C@H](Cc2c[nH]c3ccccc23)NC(=O)[C@H](Cc2ccc(O)cc2)NC(=O)[C@H](C)NC1=O)[C@@H](C)O [MP-987] (Ac-C[Lys(N3)][βAla]ATF[R8]AYWAA[Cba][S5]AAA-NH2; staple 7-14) in your answer.
> 50 µM

Name the recorded EC50 of the item CC(=O)N[C@@H](CCCCN=[N+]=[N-])C(=O)N[C@@H](CC(C)C)C(=O)N[C@H](C(=O)N[C@@H](Cc1ccccc1)C(=O)N[C@]1(C)CCCCCCC=CCCC[C@@](C)(C(=O)N[C@@H](CCC(=O)O)C(N)=O)NC(=O)[C@H](CC2CCC2)NC(=O)[C@H](CCC(N)=O)NC(=O)[C@H](C)NC(=O)[C@H](Cc2c[nH]c3ccccc23)NC(=O)[C@H](Cc2ccc(O)cc2)NC(=O)[C@H](CCC(=O)O)NC1=O)[C@@H](C)O [MP-4008] (Ac-[Lys(N3)]LTF[R8]EYWAQ[Cba][S5]E-NH2; staple 5-12) in your answer.
> 50 µM
